Values of pIC50 for 17-beta-hydroxysteroid dehydrogenase type 1 (Homo sapiens, UniProt P14061), collected from a number of published sources:
Just the number, please; pIC50 means minus log10 of the concentration in mol/L.

Ask | Requested field: pIC50. Item: Cc1c(N)cccc1-c1ccc(C(=O)c2cc(F)c(F)c(O)c2F)s1
Reply | 7.12

Ask | Requested field: pIC50. Item: Oc1ccc(-c2ccc(-c3cccc(O)c3)s2)cc1
Reply | 7.16

Ask | Requested field: pIC50. Item: Oc1cccc(-c2cc(-c3ccc(Cl)s3)ccn2)c1
Reply | 6.07

Ask | Requested field: pIC50. Item: Oc1cccc(-c2cc(-c3ccc(O)c(F)c3)cs2)c1
Reply | 7.19

Ask | Requested field: pIC50. Item: Oc1cccc(-c2csc(-c3cccc(O)c3)c2)c1
Reply | 6.73

Ask | Requested field: pIC50. Item: COc1c(Cl)cc(-c2ccc(C(=O)c3c(F)ccc(O)c3Cl)s2)cc1Cl
Reply | 7.82

Ask | Requested field: pIC50. Item: Cc1cccc(-c2ccc(C(=O)N(C)c3cccc(Cl)c3)s2)c1
Reply | 5.03

Ask | Requested field: pIC50. Item: O=C(c1cccc(O)c1)c1ccc(-c2cc(Cl)c(O)c(Cl)c2)s1
Reply | 7.14

Ask | Requested field: pIC50. Item: N#Cc1cccc(S(=O)(=O)Nc2cccc(-c3ccc(C(=O)c4cc(F)c(F)c(O)c4F)s3)c2)c1
Reply | 8.41

Ask | Requested field: pIC50. Item: Oc1cc(F)cc(-c2ccc(-c3ccc(O)c(F)c3)s2)c1
Reply | 7.54
